Tested on: HBV
Experiment: Proliferation of HBV in HBV producing cell line HepG 2.2.15 (competitive PCR of culture supernatant)
Format: cell-based, Hepatitis B virus
Conditions: Hepatitis B virus, HepG2.2.15, 168 h; 0.1 μg/ml, HepG 2.2.15, one week; read-out: Inhibitory effect on the HBV proliferation: Inhibition activity on HBV-RT (%)
Description: <Experiment 2> Inhibitory Effect on the Proliferation of HBV in HBV Producing Cell Line The following experiment was performed to determine inhibitory effects of compounds of formula 1 on the proliferation of HBV producing cell line. To test for antiviral effect, replication and proliferation of HBV were measured in HepG 2.2.15, a human liver cancer cell line. […]
Tick Y if inhibition at 0.1 µg/mL is 50% or greater. Tick N if inhibition at 0.1 µg/mL is less than 50%.

>>> group("CN1CCN(c2ccc([N+](=O)[O-])c(Nc3ccc4[nH]ncc4c3)n2)CC1")
"N"

## Input Dear colleague, could you confirm whether C[C@@H](CCO)Nc1ccc([N+](=O)[O-])c(Nc2ccc3[nH]ncc3c2)n1 has inhibition at 0.1 µg/mL at or above 50%?
## Output N

## Input Dear colleague, could you confirm whether O=[N+]([O-])c1ccc(N2CCNCC2)nc1Nc1ccc2[nH]ncc2c1 has inhibition at 0.1 µg/mL at or above 50%?
## Output Y

* * *

Test: Cytotoxicity test on HepG2 cells (MTT)
Assay type: cell-based
Conditions: human; HepG2 cells, MTT; read-out: Cytotoxicity on HepG2, IC50 (50% Inhibitory Concentration)
parameter: IC50

## Input What measured IC50 goes with COc1ccc([N+](=O)[O-])c(Nc2ccc3cn[nH]c3c2)n1 ?
## Output > 100 µg/mL

* * *

Documented inhibition at 0.01 µg/mL across a set of molecules
Biological target: HBV polymerase (Hepatitis B virus genotype A2 subtype adw2)
Construct: made in house; host or cells: E. coli
Experiment: In vitro reverse transcription activity of HBV polymerase (ELISA-type, DIG/biotin nucleotides)
Type: biochemical
Settings: 0.01 μg/ml test compound; read-out: Inhibition activity on HBV-RT (%)
Experimental: <Experiment 1> Inhibitory Effect on the In Vitro Activities of HBV Polymerase in Reverse Transcription […] To the wells coated with streptavidin, 20 μl of HBV polymerase, 20 μl of reaction mixture (10 μM each of DIG-UTP and Biotin-UTP, 46 mM Tris-HCl, 266 mM KCl, 27.5 mM MgCl2, 9.2 mM DTT substrate/primer nybrid), and 20 μl of test compound (added to 1, 0.1, and 0.01 μg/ml) were added and allowed to react at 22° C. for 15 hrs. […] Absorbance was measured at 405 nm using ELISA reader. […]
Answer in %, number only, no unit symbol.

# count of solved cases: 5
>>> observed("O=[N+]([O-])c1ccc(NN2CCOCC2)nc1Nc1ccc2[nH]ncc2c1 [Example 30]")
32
>>> observed("O=[N+]([O-])c1ccc(N2CCC(O)CC2)nc1Nc1ccc2[nH]ncc2c1 [Example 28]")
20
>>> observed("O=[N+]([O-])c1ccc(NC(CO)CO)nc1Nc1ccc2[nH]ncc2c1 [Example 14]")
30
>>> observed("Nc1ccc([N+](=O)[O-])c(Nc2ccc3[nH]ncc3c2)n1 [Example 9]")
40
>>> observed("O=[N+]([O-])c1ccc(NCc2ccccn2)nc1Nc1ccc2cn[nH]c2c1 [Example 22]")
49

## Input What measured inhibition at 0.01 µg/mL goes with O=[N+]([O-])c1ccc(N2CCN(CCO)CC2)nc1Nc1ccc2cn[nH]c2c1 [Example 27] ?
## Output 15

## Input What measured inhibition at 0.01 µg/mL goes with COc1ccc([N+](=O)[O-])c(Nc2ccc3cn[nH]c3c2)n1 [Example 2] ?
## Output 12

## Input What measured inhibition at 0.01 µg/mL goes with O=[N+]([O-])c1ccc(N2CCC(O)CC2)nc1Nc1ccc2cn[nH]c2c1 [Example 29] ?
## Output 10

* * *

Target: HBV polymerase (Hepatitis B virus genotype A2 subtype adw2)
Construct: made in house; host or cells: E. coli
Test: In vitro reverse transcription activity of HBV polymerase (ELISA-type, DIG/biotin nucleotides)
Format: biochemical
Details: 1 μg/ml test compound; read-out: Inhibition activity on HBV-RT (%)
Tick Met if inhibition at 1 µg/mL is 80% or greater. Tick Not met if inhibition at 1 µg/mL is less than 80%.

Here are 3 molecules together with their reported answers.
>>> group("CN1CCN(c2ccc([N+](=O)[O-])c(Nc3ccc4[nH]ncc4c3)n2)CC1 [Example 25]")
"Met"
>>> group("CN1CCN(Nc2ccc([N+](=O)[O-])c(Nc3ccc4cn[nH]c4c3)n2)CC1 [Example 18]")
"Not met"
>>> group("COc1ccc([N+](=O)[O-])c(Nc2ccc3cn[nH]c3c2)n1 [Example 2]")
"Not met"

Shifting focus to the molecule that follows.
## Input Dear colleague, could you confirm whether CN1CCN(Nc2ccc([N+](=O)[O-])c(Nc3ccc4[nH]ncc4c3)n2)CC1 [Example 17] has inhibition at 1 µg/mL at or above 80%?
## Output Not met

* * *

System: HBV
Assay: Proliferation of HBV in HBV producing cell line HepG 2.2.15 (competitive PCR of culture supernatant)
Format: cell-based, Hepatitis B virus
Details: Hepatitis B virus, HepG2.2.15, 168 h; 1 μg/ml, HepG 2.2.15, one week; read-out: Inhibitory effect on the HBV proliferation: Inhibition activity on HBV-RT (%)
parameter: inhibition at 1 µg/mL (%)
Answer in %, number only, no unit symbol.

# count of solved cases: 8
>>> observed("O=[N+]([O-])c1ccc(NCc2cccnc2)nc1Nc1ccc2[nH]ncc2c1 [Example 19]")
85
>>> observed("O=[N+]([O-])c1ccc(N2CCNCC2)nc1Nc1ccc2[nH]ncc2c1 [Example 23]")
92
>>> observed("CN1CCN(c2ccc([N+](=O)[O-])c(Nc3ccc4[nH]ncc4c3)n2)CC1 [Example 25]")
83
>>> observed("O=[N+]([O-])c1ccc(NC(CO)CO)nc1Nc1ccc2[nH]ncc2c1 [Example 14]")
80
>>> observed("COc1ccc([N+](=O)[O-])c(Nc2ccc3[nH]ncc3c2)n1 [Example 1]")
82
>>> observed("Nc1ccn([C@@H]2CS[C@H](CO)O2)c(=O)n1 [Example 3TC, lamivudine, reference compound]")
99
>>> observed("C[C@@H](CCO)Nc1ccc([N+](=O)[O-])c(Nc2ccc3[nH]ncc3c2)n1 [Example 12]")
85
>>> observed("O=[N+]([O-])c1ccc(NCc2ccncc2)nc1Nc1ccc2[nH]ncc2c1 [Example 21]")
90

## Input What measured inhibition at 1 µg/mL goes with COc1ccc([N+](=O)[O-])c(Nc2ccc3cn[nH]c3c2)n1 [Example 2] ?
## Output 72

## Input What measured inhibition at 1 µg/mL goes with O=[N+]([O-])c1ccc(NC2CC2)nc1Nc1ccc2[nH]ncc2c1 [Example 8] ?
## Output 65

* * *

Target: HBV polymerase (Hepatitis B virus genotype A2 subtype adw2, UniProt P03159)
Construct: made in house; host or cells: E. coli
Sequence (P03159 whole entry): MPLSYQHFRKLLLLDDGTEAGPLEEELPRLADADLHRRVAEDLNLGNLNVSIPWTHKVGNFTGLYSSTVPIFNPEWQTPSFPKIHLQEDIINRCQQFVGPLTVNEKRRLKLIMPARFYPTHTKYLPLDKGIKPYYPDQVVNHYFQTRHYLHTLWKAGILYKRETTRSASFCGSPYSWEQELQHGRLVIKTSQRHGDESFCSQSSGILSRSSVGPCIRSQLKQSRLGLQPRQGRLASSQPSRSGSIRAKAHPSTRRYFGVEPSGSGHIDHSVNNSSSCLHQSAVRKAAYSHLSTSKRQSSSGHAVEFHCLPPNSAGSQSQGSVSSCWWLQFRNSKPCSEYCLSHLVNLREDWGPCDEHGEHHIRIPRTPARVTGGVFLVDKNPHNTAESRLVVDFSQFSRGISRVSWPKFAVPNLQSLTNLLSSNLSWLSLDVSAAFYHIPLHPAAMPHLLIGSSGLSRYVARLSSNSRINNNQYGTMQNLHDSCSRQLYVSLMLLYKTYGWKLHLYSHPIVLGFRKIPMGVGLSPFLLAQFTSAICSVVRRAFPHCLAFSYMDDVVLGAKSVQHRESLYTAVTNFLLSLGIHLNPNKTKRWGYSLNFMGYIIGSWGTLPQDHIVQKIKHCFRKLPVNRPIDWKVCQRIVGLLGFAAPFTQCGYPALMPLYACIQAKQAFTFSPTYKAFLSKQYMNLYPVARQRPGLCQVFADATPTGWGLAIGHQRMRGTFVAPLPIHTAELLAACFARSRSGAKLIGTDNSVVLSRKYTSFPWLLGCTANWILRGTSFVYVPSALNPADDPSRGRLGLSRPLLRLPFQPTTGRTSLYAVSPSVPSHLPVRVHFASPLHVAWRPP
Assay: In vitro reverse transcription activity of HBV polymerase (ELISA-type, DIG/biotin nucleotides)
Format: biochemical
Conditions: 1 μg/ml test compound; read-out: Inhibition activity on HBV-RT (%)
Documented inhibition at 1 µg/mL across a set of compounds
Answer in %, number only, no unit symbol.

>>> observed("O=[N+]([O-])c1ccc(NCc2ccncc2)nc1Nc1ccc2[nH]ncc2c1")
94
>>> observed("CN1CCN(c2ccc([N+](=O)[O-])c(Nc3ccc4cn[nH]c4c3)n2)CC1")
63
>>> observed("O=[N+]([O-])c1ccc(NCc2cccnc2)nc1Nc1ccc2[nH]ncc2c1")
91
>>> observed("COc1ccc([N+](=O)[O-])c(Nc2ccc3[nH]ncc3c2)n1")
85

## Input Give inhibition at 1 µg/mL (HBV polymerase (Hepatitis B virus genotype A2 subtype adw2, UniProt P03159)) of the following compound: O=[N+]([O-])c1ccc(N2CCNCC2)nc1Nc1ccc2cn[nH]c2c1
## Output 62

## Input Give inhibition at 1 µg/mL (HBV polymerase (Hepatitis B virus genotype A2 subtype adw2, UniProt P03159)) of the following compound: O=[N+]([O-])c1ccc(NCc2cccnc2)nc1Nc1ccc2cn[nH]c2c1
## Output 66

## Input Give inhibition at 1 µg/mL (HBV polymerase (Hepatitis B virus genotype A2 subtype adw2, UniProt P03159)) of the following compound: O=[N+]([O-])c1ccc(NC2CC2)nc1Nc1ccc2[nH]ncc2c1
## Output 72

## Input Give inhibition at 1 µg/mL (HBV polymerase (Hepatitis B virus genotype A2 subtype adw2, UniProt P03159)) of the following compound: O=[N+]([O-])c1ccc(NC(CO)CO)nc1Nc1ccc2[nH]ncc2c1
## Output 85

## Input Give inhibition at 1 µg/mL (HBV polymerase (Hepatitis B virus genotype A2 subtype adw2, UniProt P03159)) of the following compound: O=[N+]([O-])c1ccc(NCc2ccccn2)nc1Nc1ccc2cn[nH]c2c1
## Output 81

The measured values listed here are drawn from patent US6743795B1.
